targetOrSystem: κOR (Homo sapiens, UniProt P41145)
Construct: expressed in transfected cells; host or cells: HEK 293T cells, transient transfection, membrane preparation
assayProcedure: competitive radioligand binding with [3H]diprenorphine, membranes of transfected HEK 293T cells
testSettings: radioligand [3H]diprenorphine; number in brackets = number of experiments; read-out: mean Ki value κOR
Provide the reported pKi of each item.
Numbers only, as −log10 of the molar value.

Some compounds with known pKi results, for comparison:
CN(C)[C@H](CNC(=O)C=Cc1ccccc1)Cc1ccc(O)cc1 (stereo in doubt) | 6.92
CN(C)[C@H](CNC(=O)C#Cc1ccccc1)Cc1ccc(O)cc1 | 6.64
C/C(=C\c1ccccc1)C(=O)NC[C@H](Cc1ccc(O)cc1)N(C)C | 6.96
CN(C)[C@H](CNC(=O)/C=C/c1ccccc1C(F)(F)F)Cc1ccc(O)cc1 | 6.85
C/C(=C\C(=O)NC[C@H](Cc1ccc(O)cc1)N(C)C)c1ccccc1 | 6.92

List pKi for every entry below, keeping the order given.
1. Cc1cccc(/C=C/C(=O)NC[C@H](Cc2ccc(O)cc2)N(C)C)c1
2. CN(C)[C@H](CNC(=O)/C=C/c1ccc(C(F)(F)F)cc1)Cc1ccc(O)cc1
3. CN(C)[C@H](CNC(=O)/C=C/c1ccsc1)Cc1ccc(O)cc1

Result string:
1: 6.30; 2: 5.55; 3: 6.89
